ASSAY COMMENT: Measurement of paracellular transport (Ppara) in MDCK-MDR1 cells with and without P-gp inhibitors
Type: in vitro ADME, canine
CONDITIONS USED: dog, MDCK-MDR1, pH 7.4, B⟶A, no inhibitor, pH 7.4
PROPERTY LABEL: recovery (%)
# unit: % | format: bare number

Inquiry: Which recovery reading was recorded for the compound NS(=O)(=O)c1cc2c(cc1Cl)N=CNS2(=O)=O [Chlorothiazide] ?
Reply text: 104

----------
ASSAY COMMENT: Measurement of paracellular transport (Ppara) in MDCK-MDR1 cells with and without P-gp inhibitors
Format: in vitro ADME, canine
CONDITIONS USED: dog, MDCK-MDR1, pH 7.4, with verapamil 100 µM, A⟶B + verapamil, pH 7.4
PROPERTY LABEL: recovery
Remember to put the unit after the number in your answer.

Inquiry: Which recovery reading was recorded for the molecule NS(=O)(=O)c1cc2c(cc1Cl)N=CNS2(=O)=O [Chlorothiazide] ?
Reply text: 96%

----------
ASSAY COMMENT: in vitro
CONDITIONS USED: dog, MDCK-MDR1, pH 9
PROPERTY LABEL: recovery

Inquiry: Which recovery reading was recorded for the compound C[C@H]1O[C@@H](O[C@H]2[C@@H](O)C[C@H](O[C@H]3[C@@H](O)C[C@H](O[C@H]4CC[C@@]5(C)[C@H](CC[C@@H]6[C@@H]5C[C@@H](O)[C@]5(C)[C@@H](C7=CC(=O)OC7)CC[C@]65O)C4)O[C@@H]3C)O[C@@H]2C)C[C@H](O)[C@@H]1O [Digoxin] ?
Reply text: 75 to 82%

Inquiry: // query: COc1cc2c(c(OC)c1OC)-c1ccc(OC)c(=O)cc1[C@@H](NC(C)=O)CC2 [Colchicine]
Reply text: 92 to 100%

Inquiry: // query: CCCC(=O)Nc1ccc(OCC(O)CNC(C)C)c(C(C)=O)c1 (stereo not shown) [Acebutolol]
Reply text: 72 to 79%

Inquiry: // query: COc1cc([C@@H]2c3cc4c(cc3[C@@H](O[C@@H]3O[C@@H]5CO[C@@H](C)O[C@H]5[C@H](O)[C@H]3O)[C@H]3COC(=O)[C@H]23)OCO4)cc(OC)c1O [Etoposide]
Reply text: 60 to 71%

----------
Consider the following compounds; for each one, report its recovery.
ASSAY COMMENT: Measurement of paracellular transport (Ppara) in MDCK-MDR1 cells with and without P-gp inhibitors
Assay type: in vitro ADME, canine
CONDITIONS USED: dog, MDCK-MDR1, pH 5, with elacridar 2 µM, + 2 µM elacridar, pH 5, n = 3 (Table S13)
# unit: % | format: bare number

Inquiry: Which recovery reading was recorded for the compound COc1cccc2c1C(=O)c1c(O)c3c(c(O)c1C2=O)C[C@@](O)(C(=O)CO)C[C@@H]3O[C@H]1C[C@H](N)[C@H](O)[C@H](C)O1 [Doxorubicin] ?
Reply text: 130

Inquiry: // query: CCCC(=O)Nc1ccc(OCC(O)CNC(C)C)c(C(C)=O)c1 (centres unmarked) [Acebutolol]
Reply text: 100

----------
ASSAY COMMENT: in vitro
CONDITIONS USED: dog, MDCK-MDR1, pH 8
PROPERTY LABEL: recovery

Inquiry: Which recovery reading was recorded for the compound CCCC(=O)Nc1ccc(OCC(O)CNC(C)C)c(C(C)=O)c1 (centres unmarked) ?
Reply text: 78 to 83%

Inquiry: // query: COc1cc2c(c(OC)c1OC)-c1ccc(OC)c(=O)cc1[C@@H](NC(C)=O)CC2
Reply text: 96 to 102%

Inquiry: // query: C[C@H]1O[C@@H](O[C@H]2[C@@H](O)C[C@H](O[C@H]3[C@@H](O)C[C@H](O[C@H]4CC[C@@]5(C)[C@H](CC[C@@H]6[C@@H]5C[C@@H](O)[C@]5(C)[C@@H](C7=CC(=O)OC7)CC[C@]65O)C4)O[C@@H]3C)O[C@@H]2C)C[C@H](O)[C@@H]1O
Reply text: 73 to 76%

Inquiry: // query: COc1cc([C@@H]2c3cc4c(cc3[C@@H](O[C@@H]3O[C@@H]5CO[C@@H](C)O[C@H]5[C@H](O)[C@H]3O)[C@H]3COC(=O)[C@H]23)OCO4)cc(OC)c1O [Etoposide]
Reply text: 83 to 98%

Inquiry: // query: COc1cccc2c1C(=O)c1c(O)c3c(c(O)c1C2=O)C[C@@](O)(C(=O)CO)C[C@@H]3O[C@H]1C[C@H](N)[C@H](O)[C@H](C)O1
Reply text: 64 to 71%
